What follows is a collection of AC50 values obtained with Muscarinic acetylcholine receptor M2 (Homo sapiens, UniProt P08172).
Sequence (P08172 whole entry): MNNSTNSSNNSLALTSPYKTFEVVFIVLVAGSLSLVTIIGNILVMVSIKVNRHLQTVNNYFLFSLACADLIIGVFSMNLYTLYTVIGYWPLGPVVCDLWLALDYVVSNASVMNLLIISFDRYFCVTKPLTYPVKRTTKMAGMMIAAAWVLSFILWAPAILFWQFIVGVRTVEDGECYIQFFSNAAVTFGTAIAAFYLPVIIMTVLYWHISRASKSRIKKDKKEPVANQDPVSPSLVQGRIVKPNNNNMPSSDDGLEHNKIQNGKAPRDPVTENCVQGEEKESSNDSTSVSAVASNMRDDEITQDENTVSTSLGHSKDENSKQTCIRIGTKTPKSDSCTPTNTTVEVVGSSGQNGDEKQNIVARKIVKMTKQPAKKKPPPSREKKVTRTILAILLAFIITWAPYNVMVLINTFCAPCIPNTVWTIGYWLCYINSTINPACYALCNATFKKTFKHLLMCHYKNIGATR
recorded-metric: AC50

molecule: COc1c(OCCCN2CCOCC2)ccc2c1N=C(NC(=O)c1cnc(N)nc1)N1CCN=C21
study-target: Muscarinic acetylcholine receptor M2 (Homo sapiens, UniProt P08172); further: assay procedure not described here
measured-result: 5.64 µM
--
molecule: C=CCOc1ccc(CC(=O)O)cc1Cl
study-target: Muscarinic acetylcholine receptor M2 (Homo sapiens, UniProt P08172); further: assay procedure not described here
measured-result: > 30 µM
--
molecule: COc1cccc2c1C(=O)c1c(O)c3c(c(O)c1C2=O)C[C@@](O)(C(=O)CO)C[C@@H]3O[C@H]1C[C@H](N)[C@@H](O)[C@H](C)O1 [EPIRUBICIN]
study-target: Muscarinic acetylcholine receptor M2 (Homo sapiens, UniProt P08172); further: assay procedure not described here
measured-result: 25.2 µM
--
molecule: C#CCN(C)Cc1ccccc1
study-target: Muscarinic acetylcholine receptor M2 (Homo sapiens, UniProt P08172); further: assay procedure not described here
measured-result: > 30 µM
--
molecule: COc1ncnc(NS(=O)(=O)c2ccc(N)cc2)c1OC
study-target: Muscarinic acetylcholine receptor M2 (Homo sapiens, UniProt P08172); further: assay procedure not described here
measured-result: > 30 µM
--
molecule: Nc1ccc(C(=O)NCC(=O)O)cc1
study-target: Muscarinic acetylcholine receptor M2 (Homo sapiens, UniProt P08172); further: assay procedure not described here
measured-result: > 30 µM
--
molecule: CO[C@@]1(NC(=O)C(C(=O)O)c2ccc(O)cc2)C(=O)N2C(C(=O)O)=C(CSc3nnnn3C)CO[C@@H]21 (some centres not stated)
study-target: Muscarinic acetylcholine receptor M2 (Homo sapiens, UniProt P08172); further: assay procedure not described here
measured-result: > 30 µM
--
molecule: O=c1[nH]cc(F)c(=O)[nH]1
study-target: Muscarinic acetylcholine receptor M2 (Homo sapiens, UniProt P08172); further: assay procedure not described here
measured-result: > 30 µM
--
molecule: N[C@@H](Cc1ccc(N(CCCl)CCCl)cc1)C(=O)O
study-target: Muscarinic acetylcholine receptor M2 (Homo sapiens, UniProt P08172); further: assay procedure not described here
measured-result: 13.6 µM
--
molecule: Cc1cc(C)cc(OCC2CNC(=O)O2)c1 (configuration not stated)
study-target: Muscarinic acetylcholine receptor M2 (Homo sapiens, UniProt P08172); further: assay procedure not described here
measured-result: > 30 µM
--
molecule: CCCCCCCC/C=C\CCCCCCCC(=O)O
study-target: Muscarinic acetylcholine receptor M2 (Homo sapiens, UniProt P08172); further: assay procedure not described here
measured-result: > 30 µM
--
molecule: CC(C)N1CCOC(c2cccc(C(F)(F)F)c2)C1 (configuration not stated)
study-target: Muscarinic acetylcholine receptor M2 (Homo sapiens, UniProt P08172); further: assay procedure not described here
measured-result: 23.5 µM
--
molecule: CCCCC(=O)O[C@H]1CC[C@H]2[C@@H]3CCc4cc(O)ccc4[C@H]3CC[C@]12C [ESTRADIOL VALERATE]
study-target: Muscarinic acetylcholine receptor M2 (Homo sapiens, UniProt P08172); further: assay procedure not described here
measured-result: > 30 µM
--
molecule: CC(C)NC[C@H](O)COc1ccc(O)cc1
study-target: Muscarinic acetylcholine receptor M2 (Homo sapiens, UniProt P08172); further: assay procedure not described here
measured-result: > 30 µM
--
molecule: [H]/N=C(/N)NS(=O)(=O)c1ccc(N)cc1
study-target: Muscarinic acetylcholine receptor M2 (Homo sapiens, UniProt P08172); further: assay procedure not described here
measured-result: > 30 µM
--
molecule: CSCC[C@H](N)C(=O)O
study-target: Muscarinic acetylcholine receptor M2 (Homo sapiens, UniProt P08172); further: assay procedure not described here
measured-result: > 30 µM
--
molecule: Cc1ccc(Cl)c(Nc2ccccc2C(=O)O)c1Cl
study-target: Muscarinic acetylcholine receptor M2 (Homo sapiens, UniProt P08172); further: assay procedure not described here
measured-result: > 30 µM
